# tested.on: DNA dC->dU-editing enzyme APOBEC-3G (Homo sapiens)
# experimental.details: qHTS for Inhibitors of Vif-A3G Interactions: qHTS; further: nearly all actives have a fitted effect of over 60% in size
# condition.summary: HeLa A3G-eYFP + Vif, YFP fluorescence, overnight; series mostly up to 46.1 µM
The campaign covered roughly 410,000 compounds. About 310 (0.076%) were called active. Roughly 2% stayed inconclusive and do not appear here. The call rests on the fitted dose curve; in most records, active means well fitted curve in the direction sought with a large enough effect; inconclusive means small, poorly fitted or top-dose-only effect; inactive means flat fitted curve, though single readings scatter. The sample as a whole holds a higher share of actives than the screen did.
Labels: 1 (active), -1 (inactive)

[
  {
    "compound": "CC(C)(C)NC(=O)CSc1nc(-c2ccc(F)cc2)cc(C(F)(F)F)n1",
    "class.name": -1
  },
  {
    "compound": "CCCN(CCC)c1nc2c(C)cccn2c(=O)c1/C=C1/SC(=S)N(Cc2ccco2)C1=O",
    "class.name": 1
  },
  {
    "compound": "CC(C)(C)C1CCC(NC(=O)c2cnn3c2NC(=C2CC2)C=C3C(F)F)CC1 (stereo unspecified)",
    "class.name": -1
  },
  {
    "compound": "CCOc1ccccc1C(=O)NCc1ccc2c(c1)CCN2C(=O)c1ccc(F)cc1",
    "class.name": -1
  },
  {
    "compound": "CNCCCOc1cc2nc(N3CCCN(C)CC3)nc(NC3CCN(C)CC3)c2cc1OC",
    "class.name": -1
  },
  {
    "compound": "CCc1cc2c(cc3c(=O)n(CC(=O)N4CCN(c5cc(Cl)ccc5C)CC4)nc(CC)n32)s1",
    "class.name": -1
  },
  {
    "compound": "O=C(CSc1nc(-c2cccc(F)c2)[nH]c1-c1ccccc1)Nc1ccc2c(c1)OCO2",
    "class.name": -1
  },
  {
    "compound": "CC(C)(C)n1ncc2c(=O)n(Cc3ccc(C(=O)c4ccccc4)cc3)cnc21",
    "class.name": -1
  },
  {
    "compound": "O=C1NC(c2cccc(Cl)c2)Nc2ccccc21 (stereo unspecified)",
    "class.name": 1
  },
  {
    "compound": "CCOc1ccc(N(CC)S(=O)(=O)N2CCCC(C(=O)NCc3ccc(Cl)cc3)C2)cc1 (stereo unspecified)",
    "class.name": -1
  },
  {
    "compound": "O=C1CCC[C@@H]2C[C@@]3(C[C@@H]4CCN1[C@H]24)Nc1ccccc1NC3=NCc1ccccc1",
    "class.name": -1
  },
  {
    "compound": "O=C1NC(c2ccccc2)Oc2ccccc21 (stereo unspecified)",
    "class.name": -1
  },
  {
    "compound": "CSc1n[nH]c(-c2ccco2)n1",
    "class.name": -1
  },
  {
    "compound": "CN(C(=N)N)c1ccc(/C=C2\\C=Cc3ccccc32)cc1",
    "class.name": -1
  },
  {
    "compound": "COc1cc2c(=O)c(S(=O)(=O)c3ccc(C(C)C)cc3)cn(Cc3ccccc3C)c2cc1OC",
    "class.name": -1
  },
  {
    "compound": "COc1ccc(S(=O)(=O)NCC(c2ccc(N(C)C)cc2)N2CCc3ccccc32)cc1OC (stereo unspecified)",
    "class.name": -1
  },
  {
    "compound": "Cc1oc2c(c1C(=O)Nc1ccc(F)c(F)c1)C1=NCCN1C=N2",
    "class.name": -1
  },
  {
    "compound": "CCOc1ccc(C(=O)/C=C/c2cn(CC(O)CN3CCCCCC3)c3ccccc23)cc1 (stereo unspecified)",
    "class.name": -1
  },
  {
    "compound": "CO[C@H]1O[C@@H]2O[C@@]3(C)CC[C@@H]4[C@@H](C)CC[C@@H]([C@H]1C)[C@@]24OO3",
    "class.name": -1
  },
  {
    "compound": "O=C1O/C(=C\\c2ccc(O)cc2)C(O)=C1c1ccc(O)cc1",
    "class.name": -1
  },
  {
    "compound": "O=S(=O)(c1cccc(C(F)(F)F)c1)N1CCN(c2nc(-c3cccs3)nc3ccccc23)CC1",
    "class.name": -1
  }
]

---

# tested.on: DNA dC->dU-editing enzyme APOBEC-3G (Homo sapiens)
# experimental.details: qHTS for Inhibitors of Vif-A3G Interactions: qHTS; further: nearly all actives have a fitted effect of over 60% in size
# condition.summary: HeLa A3G-eYFP + Vif, YFP fluorescence, overnight; series mostly up to 46.1 µM
The whole screen tested about 410,000 compounds, of which about 310 (0.076%) were called active. Roughly 2% stayed inconclusive and do not appear here. The call rests on the fitted dose curve; in most records, active means well fitted curve in the direction sought with a large enough effect; inconclusive means small, poorly fitted or top-dose-only effect; inactive means flat fitted curve, though single readings scatter. The full list was thinned out, with actives kept by preference.
Labels: active, inactive

[
  {
    "compound": "Cc1cc(NS(=O)(=O)c2ccc3oc(=O)c4ncn(C)c4c3c2)ccc1Br",
    "class.name": "inactive"
  },
  {
    "compound": "CCn1c(=O)c(=O)n(CC)c2cc(N3CCCCC3)c(NC(=O)c3cccc(F)c3)cc21",
    "class.name": "inactive"
  },
  {
    "compound": "CCCCN(CC)CCCNC(=O)Cn1ncc2c([nH]c3ccc(C)cc32)c1=O",
    "class.name": "inactive"
  },
  {
    "compound": "COc1ccc(CNC(=O)Cn2nnc(-c3ccc(S(C)(=O)=O)cc3)n2)cc1",
    "class.name": "inactive"
  },
  {
    "compound": "O=[N+]([O-])c1ccc(/C=C/c2ccc3cccnc3c2)cc1",
    "class.name": "inactive"
  },
  {
    "compound": "CN(C)c1ccc(/C=c2\\[nH]c(=O)/c(=C/c3ccc(N(C)C)cc3)[nH]c2=O)cc1",
    "class.name": "inactive"
  },
  {
    "compound": "COc1cccc(/C=N/NC(=O)c2[nH]nc3c2CCc2ccccc2-3)c1O",
    "class.name": "active"
  },
  {
    "compound": "Cc1ccccc1NC(=O)COc1cccc2c1CCNC2=O",
    "class.name": "inactive"
  },
  {
    "compound": "Cc1c(Cl)cccc1NC(=O)CCS(=O)(=O)c1ccc2c(c1)oc(=O)n2C",
    "class.name": "inactive"
  },
  {
    "compound": "CN(N=O)c1ccc(C=C2c3ccccc3-c3ccccc32)cc1",
    "class.name": "inactive"
  },
  {
    "compound": "S=c1[nH]c(=S)c2n[nH]nc2[nH]1",
    "class.name": "inactive"
  },
  {
    "compound": "CC(C)c1ccc(NC(=O)Cn2c3ncccc3c(=O)n2-c2ccccc2)cc1",
    "class.name": "inactive"
  },
  {
    "compound": "O=C(CSc1ncc(S(=O)(=O)c2ccc(Br)cc2)c(=O)[nH]1)Nc1ccc2c(c1)OCCO2",
    "class.name": "inactive"
  },
  {
    "compound": "Cc1[nH]c2ccccc2c1C(=O)C(=O)N(C)c1ccccc1",
    "class.name": "inactive"
  },
  {
    "compound": "O=C(NCC(c1ccco1)S(=O)(=O)c1cccs1)c1ccc(F)cc1 (configuration not stated)",
    "class.name": "inactive"
  },
  {
    "compound": "CCS(=O)(=O)N1CCc2cc(C(=O)NCc3ccc(C)cc3)ccc21",
    "class.name": "inactive"
  },
  {
    "compound": "Cc1ccc(NC(=O)CCCn2c(=O)c3cccn3c3ccccc32)cc1Cl",
    "class.name": "inactive"
  },
  {
    "compound": "CCC(C)NC(=O)Cn1c(=O)n(-c2ccc(Cl)cc2)c(=O)c2c3c(sc21)CCCC3 (configuration not stated)",
    "class.name": "inactive"
  },
  {
    "compound": "CCn1c(CNC(=O)C23CC4CC(CC(C4)C2)C3)nnc1SCC(=O)Nc1ccc(OC)cc1",
    "class.name": "active"
  },
  {
    "compound": "N#Cc1ccc[n+](CC(=O)c2ccc(F)cc2)c1",
    "class.name": "inactive"
  },
  {
    "compound": "O=C(Nc1ccc([N+](=O)[O-])cc1)c1cnn2c1NC(=C1CC1)C=C2C(F)F",
    "class.name": "inactive"
  },
  {
    "compound": "CCCCNC(=O)Cn1c(SCc2cccc(Cl)c2)nc2ccncc21",
    "class.name": "inactive"
  }
]

---

# tested.on: DNA dC->dU-editing enzyme APOBEC-3G (Homo sapiens) (UniProt Q9HC16)
# Sequence (Q9HC16 whole entry, looked up): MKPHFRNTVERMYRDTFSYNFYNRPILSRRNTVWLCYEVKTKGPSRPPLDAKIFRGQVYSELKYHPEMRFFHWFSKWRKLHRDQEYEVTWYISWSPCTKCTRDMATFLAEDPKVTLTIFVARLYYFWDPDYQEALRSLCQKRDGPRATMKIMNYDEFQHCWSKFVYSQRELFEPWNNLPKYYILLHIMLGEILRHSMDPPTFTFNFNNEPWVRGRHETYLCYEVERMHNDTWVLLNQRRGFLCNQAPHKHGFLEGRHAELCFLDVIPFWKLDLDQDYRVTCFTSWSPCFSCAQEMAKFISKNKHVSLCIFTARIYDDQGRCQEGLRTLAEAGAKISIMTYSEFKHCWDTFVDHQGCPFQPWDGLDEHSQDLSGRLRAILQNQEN
# experimental.details: qHTS for Inhibitors of Vif-A3G Interactions: qHTS; further: nearly all actives have a fitted effect of over 60% in size
# condition.summary: HeLa A3G-eYFP + Vif (tagged APOBEC3G with the HIV-1 protein that degrades it), YFP fluorescence, overnight; series mostly up to 46.1 µM
The whole screen tested about 410,000 compounds, of which about 310 (0.076%) were called active. About 2% were inconclusive and are not listed. The sample as a whole holds a higher share of actives than the screen did.

[
  {
    "compound": "CCCNC(=O)C1CCN(c2nc3ccc(C)cc3[nH]2)CC1",
    "outcome": "inactive"
  },
  {
    "compound": "CCOC(=O)c1scc(-c2ccc(C)cc2)c1S(=O)(=O)Nc1cc(C)ccc1C",
    "outcome": "inactive"
  },
  {
    "compound": "Cc1cccn2c(=O)c3cc(C(=O)NC(C)c4ccccc4)c(=N)n(CCCO)c3nc12 (stereo not given)",
    "outcome": "inactive"
  },
  {
    "compound": "CN(C)C1=C2C=CC=CC2/C(=C2/C=Cc3ccccc32)C=C1 (stereo not given)",
    "outcome": "inactive"
  },
  {
    "compound": "CCOc1ccc(-c2cc3nc(C4CCN(C(=O)OC(C)(C)C)CC4)c(C(=O)Nc4ccc(C(=O)OC)cc4)cn3n2)cc1",
    "outcome": "inactive"
  }
]
